- test-system: cAMP-dependent protein kinase catalytic subunit alpha (Bos taurus)
- experiment-summary: PKA In Vitro Enzyme Assay
- test-parameters: pH 7.2; 22 °C
property-label: IC50 (µM)

[[record]]
molecule = "CNCC(c1ccc(Cl)cc1)c1ccc(-c2ncnc3nc[nH]c23)cc1 (stereo unspecified)"
value_measured = 0.015

